Source: the nanobody polyreactivity screen of Harvey et al. (2022)

Assay: yeast display, Sf9 membrane polyspecificity reagent, FACS + sequencing; frameworks hold sequencing errors
READOUT: polyreactivity (PSR sort gate)

As a guide, the following entries are already answered.
>>> result("QDQHVESGGGLVQAGGSLRLSCAAYGSTFLYYAMGWFRQAPGKERELVAAITSGGSTYYADSVKGRFTISRDNPKNTVFLQMNRLKPEDTAVYYCTVFGYGYWGQGTQVTVSS")
"high polyreactivity"
>>> result("QVQLVESGGGLVQAGGRLRLSCAASGITFDLYAMGWYSQAPGKERELVAAISISSTSTYYADSVKGRFTISRDYEKNTVYLQMNSLKPEDTAVYYCNAVPSSKTFWFDYWGQGTQVTVSS")
"low polyreactivity"
>>> result("QVQLVESGGGLVQAGGSLRLSCAASGFIFVRYAMGWYRQAPGKERELVAAISWRGGSTYFADSVKGRFTISRDNAKNTVYLQMNSLKPEDTAVYYCAAVTWVHRYSRFNPFVAFDYWGQGTQVTVSS")
"high polyreactivity"
>>> result("QVQLVESGGGLVQAVGSLRLSCAASGSTFGRNAMGWYRQAPGKERELVAAISWSASRTYYADSVKGRFTISRDNAKNTVYLQMNSLKPEDTAVYFCAAEYDVGYFGYEYWGQGTQVTVSS")
"high polyreactivity"
>>> result("QVQLVESGAGVVQAGGSLRLSCAASGSTFYRYAMGWYRQAPGKERELVATITNSGGSTYYADSVKGRFTISRDNAKNTVYLQMNSLKPEDTAVYYCARVRSRNTGYYYWGQGTQVTVSS")
"high polyreactivity"
>>> result("QVQHVESGGGLVQAGGSLRLSCAASGLTSVINAMGWYRQAPGKERELVAAMTNGGSTSYADSVKGRFTISRDNAKNPVYLQMNSLKPEDTAVYYWAADIVSSTDYPFDYWGQGTQVTVSS")
"low polyreactivity"
>>> result("QVQLVESGGCLVQAGGSLRLSCAASGSILRYYAMGWYRQAPGKERELVAAISRGGSTYYADSVKGRFTISRDNAKNTVYLQMNSLKPEDTAVYYCARLPLRYYFGYDYWGQGTQVTVSS")
"high polyreactivity"
>>> result("QVQLVESGGGLVQAGGSLRLSCAASGRTFQSYAMGWYRQAPGKERELVASITSGASTNYADSVKGRFTISRDNAKNTVYLQMNSLKPEDTAVYYCARRIGHGSRPYWLETWRYPYDYWGQGTQVTVSS")
"low polyreactivity"
>>> result("QVHLVESGGGLVEAGGSLRLSCADSGNIFAWYAMGWYRQAPGKERELVADISSLGGSTYYADSVKGRFTISRDNATNTVYLQMNSLKPEDTEVYYCAAVWYWTQDYDYWGQGTQVTVSS")
"low polyreactivity"
>>> result("QVQLVESGGGLVQAGGSLRLSCAASGFTFRYYAMGWYRQAPGKEWELVARITWNGGRTYYADSVKGRFTISRDNAKNTLYLQMNSLKPEDTAVYYCAARGFYRSYYWGQGTQVTVSS")
"high polyreactivity"

Prompt: Look at this sequence and give its reported polyreactivity (PSR sort gate). QVQLVESGGGLVQAGGSLRLSCAASGLIFYIYMGWYRQAPGKERELVAVISSSGNSTYYADSVKGRFTISRDNEKNTVYLQMNSLKPEDTAVYYCNASAYYPPSSSRYDYWGQGTQVTVSS
Completion: low polyreactivity

Prompt: And then QVQLVESGGGLVQAGGSLRLSCAASGFIFNVNAMGWYRQAPGKEREFVAVSTYADSVKGRFTISRDNAKNTVYLQMNSLKPEDTAVYYCAATFVQPVYDYDYWGQGTQVTVSS , what is it?
Completion: low polyreactivity

Prompt: And then QVQLVESGGGLVQGGGSLSLSCAASGSIFLYYAMGWYRQAPGKERELVAGIRRGGRTNYSDSVKGRFTISRDNAKNNVYLQMNSLKPEDTAVDYCAKGGYCGQGTQVTVSS , what is it?
Completion: high polyreactivity

###

Assay: yeast display, Sf9 membrane polyspecificity reagent, FACS + sequencing; frameworks hold sequencing errors
READOUT: polyreactivity (PSR sort gate)

As a guide, the following entries are already answered.
>>> result("QVQLVESGGGLVQAGGSLRLSCAASGSTFGRNAMGWYRQAPGKERELVAAISSGGRTYYADSVKGRFTISRDNAKNTVYLQMNSLKPEDTAVYYCARDDYGTLVKLYVRGFNYWGQGTQVTVSS")
"low polyreactivity"
>>> result("QVQLVESGGGLVQAGGSLRLSCAASGRIFYAYAMGWYRQAPGKEREFVAAISWGGGSTNYADSVKGRFTISRDNAKNTVYLQMNSLKPEDTAVYYCATGFYYYLTKTIPYEYEYWGQGTQVTVSS")
"low polyreactivity"
>>> result("QVQLVESGGGLVQAGGSLRLSCAASGGTFNRNAMGWYRQAPGKERELVAAISSSGGRTYYADSVKGRFTISRDNAKNTVYLQMNSLKPEDTAVYYCAAGRKGHGGAYDSWAQGTQVTVSS")
"high polyreactivity"
>>> result("QVQLVESGGGLVQAGGSLRLSCAASGFTFNRYAMGWYRQAPGKERELVAAISWSGTSTYYADSVKGRFTISRDNAKNTVYLQMNSLKQEDTAVYYCAARVKGQWNTYDYWGQGTQVTVTS")
"high polyreactivity"

Now, please, on to the next sequence.
Prompt: Look at this sequence and give its reported polyreactivity (PSR sort gate). QVQLVESGGGLVQAGGTLRLSCAASGSTYDTYTMGGYSQAPGKERVLVAAITSSGDSTYYADSVKGRSTISRDNAKNTVYLQMNSLKPEDTAVYYCAAEVTVWLYYLYVGEYEYWGQGTQVTVSS
Completion: high polyreactivity

###

Experiment: yeast display, Sf9 membrane polyspecificity reagent, FACS + sequencing; frameworks hold sequencing errors
READOUT: polyreactivity (PSR sort gate)

As a guide, the following entries are already answered.
>>> result("QVQLVESGGGLVQAGGSLRLSCAASGSIFAINAMGLYRQAPGKERELVARISWSGGRTYYADSVKGRFTISRDNAKNSVYLQMNSLKPEVTAVYYCAARYYWGQVTQVTVSS")
"high polyreactivity"
>>> result("QVQLVESGGGLVQAGGSLRLSCAASGFTFVYYVMGWYRPAPGKERELVAAISWSGGRTYYADSVKGRFTISRDNAKNTVYLQMNSLKPDDTAVYYCAAVRPYYYPLPTVPNLPYDYWGQGTQVTVSS")
"high polyreactivity"
>>> result("QVQLVESGGGLVQAGGSLRLSCAASGSTFVGYAMGWYRPAPGKDRELVADIDSIGGSTYYADSVKGRFTISRDNAKNTVYVQMNSPKPEDTAVYYCAKTWYPWSRSGYYRRYDSWGQGTQVTVSS")
"low polyreactivity"
>>> result("QDQLEESGGGLVQAGGSLRLICAAYGSTFVLYDMGWYRQEPGKERELVADISYSGGSTYYEDSVKGRFTISRDNAKYTVYLLMKRLIPEDTAFYYCIAGVLVLLYAYLPSELEYWGQGTQVTVSS")
"low polyreactivity"

Now, please, on to the next sequence.
Prompt: Look at this sequence and give its reported polyreactivity (PSR sort gate). QVQLVESGGGLVQAGASLRLSCAASGSTFVIYTMGWYRQAPGKERDLVAAISWSGGITRYADSVKGRFTISRDNGKNTVYLQMNSLKPEDTAVYYCNASQWPSRFDYWGQGPQVTVSS
Completion: low polyreactivity

###

Experiment: yeast display, Sf9 membrane polyspecificity reagent, FACS + sequencing; frameworks hold sequencing errors
READOUT: polyreactivity (PSR sort gate)

>>> result("QVQLVESGGGLVQAGGSLRLSCAASVYTSSLNAMGWYRQAPGKERELVARITTDGTSTYYADSVKGRFTISRDNAKNTVYLQMNSLKPEDTAVYYCNARYPAYGVRSWYPYAYYYWGQGTQVTVSS")
"low polyreactivity"
>>> result("QVQLVESGGGLVQAGGSLRLSCAASGITFHYKAMGWYIQAPGKERELVATIRRGGITKYADSVKGRFTISRDNAKNTVYLQMNSLKPEDTAVYYCAAGYYSHGAWFDHWGEGTQVTVSS")
"low polyreactivity"

###

Assay: yeast display, Sf9 membrane polyspecificity reagent, FACS + sequencing; frameworks hold sequencing errors
READOUT: polyreactivity (PSR sort gate)

As a guide, the following entries are already answered.
>>> result("QVQLVESGGGLVQAGGSLRLSCAASGGTFSTYAMGWYRQAPGKERELVAAISSTGGSTYYADSVKGRFTISRDNAKNTVYLQMNSLKPEDTAVYYCAAYYSRGWLLYWDEMYYWGQGTQVTVSS")
"high polyreactivity"
>>> result("QVQLVESGGGLVQAGGSLRFSCAASGSIFGTYAMGWYRQAPGKERELVAAITGNGGRTYYADSVKGRFTISRDNAKNTVYLQMNSLKPEDTAVYYCAKATSRRGFYYWGQGTQVTVSS")
"high polyreactivity"
>>> result("QVQLVESAGGLVQAGGSLRLICAASGRIFGGNTRGWYREAPGKERELGASIRSRGGRTNYADSLNGRFTISRDTAKNTVYLQMNSLQPEDTSVYYCDATQIYRFDYWGQGTQVTVSS")
"low polyreactivity"
>>> result("QVQLVESGGGLVQAGGSLRLSCAASGIILFYAMGWYRQAPGKERELVAAISSGGGTSYADSVKGRFTISRDNAKNTVYLHMNSLKPEDTAVYYCNADGYSYFWYPSYARGHDYWGQGTQVTVSS")
"low polyreactivity"

Prompt: Look at this sequence and give its reported polyreactivity (PSR sort gate). QVQLVESGGGLVQAGGSLRLSCAASGFISAGYAMGWYRQAPGKERELVAAISRRGGRTYYADSVKGRFTISRDNAKNTVYLQLNSLKPEDTAVYYCAAGSPHSAFAGPYDYWGQGTQVTVSS
Completion: high polyreactivity
